molecular target: VIM-1 (Pseudomonas aeruginosa (strain ATCC 15692 / DSM 22644 / CIP 104116 / JCM 14847 / LMG 12228 / 1C / PRS 101 / PAO1), UniProt A0A0F7KYQ8); experiment: biochemical; details: CCF2-FA substrate, 2 hours at 25° C
Checkbox rule: IC50 lower than 0.4 nM = yes; IC50 not lower than 0.4 nM = no.

Worked examples follow.
# Compound, Classification
records = [
    ("Nc1nc2cccc(-c3ccc(S(=O)(=O)[C@H]4CCNC4)c(S(N)(=O)=O)c3-c3nn[nH]n3)c2[nH]1", "yes"),
    ("NCCS(=O)(=O)c1ccc(-c2cccc3[nH]c(CN)nc23)c(-c2nn[nH]n2)c1S(N)(=O)=O", "no"),
    ("NCCS(=O)(=O)c1ccc(-c2cccc3cn[nH]c23)c(-c2nnn[nH]2)c1S(N)(=O)=O.O=C(O)C(F)(F)F [Example 173, 2,2,2-trifluoroacetate]", "yes"),
]

Query: Quick check: IC50 of NS(=O)(=O)c1c(S(=O)(=O)C2CNC2)ccc(-c2ccc(C3CCNCC3)cc2)c1-c1nn[nH]n1 under 0.4 nM?
Result: yes

Query: Repeat with NCCS(=O)(=O)c1ccc(-c2cccc(C(=O)O)c2N)c(-c2nn[nH]n2)c1S(N)(=O)=O
Result: no

Query: Try NCCS(=O)(=O)c1ccc(-c2ccc(N)nc2)c(-c2nn[nH]n2)c1S(N)(=O)=O next.
Result: no

Query: Now the same for NCCS(=O)(=O)c1ccc(-c2cccc3[nH]c(CC(N)C(=O)O)nc23)c(-c2nn[nH]n2)c1S(N)(=O)=O (centres unmarked)
Result: no

Query: One more compound: CS(=O)(=O)Nc1nc2c(-c3ccc(S(=O)(=O)CCN)c(S(N)(=O)=O)c3-c3nn[nH]n3)cccc2s1
Result: yes

Query: # repeat for N#CC1(c2ccc(-c3ccc(S(=O)(=O)CCN)c(S(N)(=O)=O)c3-c3nnn[nH]3)cn2)CNC1.O=C(O)C(F)(F)F [Example 132, 2,2,2-trifluoroacetate]
Result: no

Query: Query NS(=O)(=O)c1c(S(=O)(=O)[C@H]2CCNC2)ccc(-c2cccc3nc(C(=O)O)[nH]c23)c1-c1nn[nH]n1 next
Result: no

Query: Thanks! And Nc1nc2cccc(-c3ccc(SC4CCNCC4)c(S(N)(=O)=O)c3-c3nn[nH]n3)c2[nH]1 ?
Result: no

Query: Please answer likewise for Nc1c(NCCO)cccc1-c1ccc(S(=O)(=O)C2CNC2)c(S(N)(=O)=O)c1-c1nn[nH]n1
Result: no

Query: Next up: CCn1c(N)nc2c(-c3ccc(S(=O)(=O)CCN)c(S(N)(=O)=O)c3-c3nn[nH]n3)cccc21
Result: no
